# TARGET OR TEST SYSTEM: human FGF21 receptor (FGF21R): full length human FGFR1c and full length human β-Klotho co-expressed at the … (human, UniProt P11362 22-822; Q86Z14 53-1044)
# ASSAY REMARKS: cell-based or functional assay
VALUE KIND: EC50 (nM), Erk-phosphorylation, human adipocyte assay
Your answer is read as nM, so omit the unit and give the number.

Recorded results for 3 binders are shown here.
1) 22H5 variant, light chain S94A (antibody, human IgG2, lambda, V domains shown, variant chain entry already carries the change; also called #6, P60898.3) VH: QVTLKESGPVLVKPTETLTLTCTVSGFSLSNARMGVSWIRQPPGKALEWLAHIFSNDEKSYSTSLKSRLTISKDTSKSQVVLTMTNMDPVDTATYYCARILLVGAYYYCGMDVWGQGTTVTVSS VL: SYVLTQPPSVSVAPGQTARITCGGNNIGSQSVHWYQQKPGQAPVLVVYDDSDRPSGIPERFSGSNSGNTATLTISRVEAGDEADYYCQVWDNTADHVVFGGGTKLTVLG :: 1.98
2) 22H5 variant, light chain N92Q (antibody, human IgG2, lambda, V domains shown, variant chain entry already carries the change; also called #7, P60897.3) VH: QVTLKESGPVLVKPTETLTLTCTVSGFSLSNARMGVSWIRQPPGKALEWLAHIFSNDEKSYSTSLKSRLTISKDTSKSQVVLTMTNMDPVDTATYYCARILLVGAYYYCGMDVWGQGTTVTVSS VL: SYVLTQPPSVSVAPGQTARITCGGNNIGSQSVHWYQQKPGQAPVLVVYDDSDRPSGIPERFSGSNSGNTATLTISRVEAGDEADYYCQVWDQTSDHVVFGGGTKLTVLG :: 3.33
3) 16H7 variant, heavy chain D88R + P89A + V90E (antibody, human IgG2, lambda, V domains shown) VH: QVTLKESGPVLVKPTETLTLTCTVSGFSLNNARMGVSWIRQPPGKALEWLAHIFSNDEKSYSTSLKSRLTISKDTSKSQVVLIMTNMRAEDTATYYCARSVVTGGYYYDGMDVWGQGTTVTVSS VL: SYVLTQPPSVSVAPGQTARITCGGNNIGSESVHWYQQKPGQAPVLVVYDDSDRPSGIPERFSGSNSGNTATLTISRVEAGDEADYYCQVWDGNSDHVVFGGGTKLTVLG :: 0.35

In one line, give reported EC50 (nM), Erk-phosphorylation, human adipocyte assay of the entry 16H7 variant, heavy chain D88R + P89A + V90E + S100I (antibody, human IgG2, lambda, V domains shown) VH: QVTLKESGPVLVKPTETLTLTCTVSGFSLNNARMGVSWIRQPPGKALEWLAHIFSNDEKSYSTSLKSRLTISKDTSKSQVVLIMTNMRAEDTATYYCARIVVTGGYYYDGMDVWGQGTTVTVSS VL: SYVLTQPPSVSVAPGQTARITCGGNNIGSESVHWYQQKPGQAPVLVVYDDSDRPSGIPERFSGSNSGNTATLTISRVEAGDEADYYCQVWDGNSDHVVFGGGTKLTVLG .
0.14
